Source: ChEMBL document CHEMBL5053545

The entries below are paired with their reported deltaG.
System: Escherichia coli
assay_procedure: Binding affinity to Escherichia coli sliding clamp assessed as gibbs free energy change by ITC analysis
*1 amine or outer side, *2 acyl side, *3 side chain or, on linkers, in order; H or OH if unused. Where a SMILES comes first, the peptide text is derived from it. [ ]: non-standard residue; d: D form. The star is where a group is joined. ACHC(1S,2S) = O=C([C@H]1CCCC[C@@H]1N[*:1])[*:2]; Phe(3,4-Cl2) = N[C@@H](Cc1ccc(Cl)c(Cl)c1)C(=O)O; NMeQ = CN[C@@H](CCC(N)=O)C(=O)O; Cha = N[C@@H](CC1CCCCC1)C(=O)O; NMeD = CN[C@@H](CC(=O)O)C(=O)O; Phe(ol) = N[C@H](CO)Cc1ccccc1; X5 = CN(C)C(=NCC(=O)*)N(C)C; X4 = NC[C@H](Cc1ccccc1)N*
Give just the number in kcal/mol; leave the unit off.

Recorded result, CC(=O)N[C@@H](CCC(N)=O)C(=O)N[C@@H](CC1CCCCC1)C(=O)N[C@@H](CC(=O)O)C(=O)N[C@@H](CC(C)C)C(=O)N[C@H](CO)Cc1ccccc1 (Ac-Q[Cha]DL[Phe(ol)]) , deltaG: -8.4

// deltaG value for CC(C)C[C@H](NC(=O)[C@H](CC(=O)O)NC(=O)[C@H](CC1CCCCC1)NC(=O)[C@H](CCC(N)=O)NC(=O)CN=C(N(C)C)N(C)C)C(=O)N[C@@H](Cc1ccccc1)C(=O)O (X5-Q[Cha]DLF-OH) : -8.7

Noted for CC(=O)N[C@@H](CCC(N)=O)C(=O)N[C@@H](CC1CCCCC1)C(=O)N[C@@H](CC(=O)O)C(=O)N[C@@H](CC(C)C)C(=O)N1CCC[C@H]1C(=O)N[C@@H](Cc1ccccc1)C(=O)O (Ac-Q[Cha]DLPF-OH) : its deltaG reads -9.7

Further cases:
# deltaG (compound: CC(=O)N[C@@H](CCC(N)=O)C(=O)N[C@@H](CC1CCCCC1)C(=O)N(C)[C@@H](CC(=O)O)C(=O)N[C@@H](CC(C)C)C(=O)N1CCC[C@H]1C(=O)N[C@@H](CC(C)C)C(=O)O (Ac-Q[Cha][NMeD]LPL-OH) ) is -9

Entry CC(=O)N[C@@H](CCCNC(=N)N)C(=O)N[C@@H](CCC(N)=O)C(=O)N[C@@H](CC1CCCCC1)C(=O)N(C)[C@@H](CC(=O)O)C(=O)N[C@@H](CC(C)C)C(=O)N[C@@H](Cc1ccc(Cl)c(Cl)c1)C(=O)O (Ac-RQ[Cha][NMeD]L[Phe(3,4-Cl2)]-OH) — recorded deltaG = -8.9

Measured deltaG of CC(=O)N[C@@H](CCC(N)=O)C(=O)N[C@@H](CC1CCCCC1)C(=O)N[C@@H](CC(=O)O)C(=O)N[C@@H](CC(C)C)C(=O)N[C@H]1CCCC[C@@H]1C(=O)N[C@@H](CC(C)C)C(=O)O (Ac-Q[Cha]DL[ACHC(1S,2S)]L-OH) : -7.4

Looking up CC(=O)N(C)[C@@H](CCC(N)=O)C(=O)N[C@@H](CC1CCCCC1)C(=O)N[C@@H](CC(=O)O)C(=O)N[C@@H](CC(C)C)C(=O)N[C@@H](Cc1ccccc1)C(=O)O (Ac-[NMeQ][Cha]DLF-OH) , I found its deltaG recorded as -7.7

Form field deltaG, entry CC(=O)N[C@@H](CCC(N)=O)C(=O)N[C@@H](CC1CCCCC1)C(=O)N[C@@H](CC(=O)O)C(=O)N[C@@H](CC(C)C)C(=O)N[C@H](CN)Cc1ccccc1 (Ac-Q[Cha]DL-X4) : -8.27
